Data provenance: patent US20080262097A1

# System: S. aureus ATCC 29213
# Assay Info: Disc diffusion assay (DDA)
# Type: cell-based, Staphylococcus aureus
# Condition Context: Table 1, zone diameter, 200 μg per disc (thymoquinone 50 μg)
We begin with a simple list: items and their reported DDA.
Report only the number, with the unit mm understood.

Solved entries (count: 4):
Molecule: Cc1c(O)ccc(O)c1C [2,3-dimethyl-p-hydroquinone]
Property Label: DDA
Reported Result: 33.41
//
Molecule: CCc1cc(O)ccc1O [2-ethyl-p-hydroquinone]
Property Label: DDA
Reported Result: 21.06
//
Molecule: O=C1C=CC(=O)C=C1
Property Label: DDA
Reported Result: 29.34
//
Molecule: CC1=CC(=O)C(C(C)C)=CC1=O
Property Label: DDA
Reported Result: 15.64

Note: attention shifts to another entry.
Report DDA for O=C(OOC(=O)c1ccccc1)c1ccccc1 [benzoyl peroxide]
11.03
